Would you kindly list viability, T/C for each of these compounds?
system: 857933-349-R-J2-PDC complex spheroids, viability; test: Anticancer human tumor 857933-349-R-J2-PDC patient-derived colon adenocarcinoma cell line growth inhibition [GQUAD]; conditions: second compound 3.16 µM; first compound 0.1 µM; stronger effect = lower value
Answers are plain numbers, in %.

Some compounds with recorded viability, T/C:
| compound | target | unit.tag | recorded.measurement |
| --- | --- | --- | --- |
| CC(C)(O)C1CCC(Nc2ccc3ncc(-c4cccc(C(F)(F)F)c4)n3n2)CC1 (stereo not drawn) + CN(C)c1ccc(Nc2c3ccc(NC(=O)CCN4CCCC4)cc3nc3cc(NC(=O)CCN4CCCC4)ccc23)cc1 | 857933-349-R-J2-PDC complex spheroids, viability | % | 75.5 |
| CC1COCCN1c1cc(C2(O)CC3CCC(C2)O3)c2cnn(-c3ccn[nH]3)c2n1 (stereo not drawn) + Cc1cnc(CNC(=O)c2c(=O)c3ccc(N4CCCN(C)CC4)nc3n3c2sc2ccccc23)cn1 | 857933-349-R-J2-PDC complex spheroids, viability | % | 1.84 |

Given the compound C=CCn1c(=O)c2cnc(Nc3ccc(N4CCN(C)CC4)cc3)nc2n1-c1cccc(C(C)(C)O)n1 + Cc1[nH]c2ccc(F)cc2c1-c1nc2c3cccnc3c3ncccc3c2[nH]1 , what is its reported viability, T/C?
76

----------
system: 857933-349-R-J2-PDC complex spheroids, viability; experiment: Anticancer human tumor 857933-349-R-J2-PDC cell line growth inhibition [GQUAD]; settings: second compound 3.16 µM; first compound 0.00999 µM; active means viability on the fitted dose curve at most 10% of control; inactive means the rest;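 further: spheroids exposed to compounds for one week before readout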
Respond only with the outcome that fits, drawn from TRUE (active), FALSE (inactive)

Worked cases, answers included:
| molecule | assigned.class |
| --- | --- |
| CC[C@@]1(O)C(=O)OCc2c1cc1n(c2=O)Cc2cc3c(CN(C)C)c(O)ccc3nc2-1 + CN(C)c1ccc(Nc2c3ccc(NC(=O)CCN4CCCC4)cc3nc3cc(NC(=O)CCN4CCCC4)ccc23)cc1 | FALSE |
| Cn1ncnc1[C@H]1c2n[nH]c(=O)c3cc(F)cc(c23)N[C@@H]1c1ccc(F)cc1 + Cc1cnc(CNC(=O)c2c(=O)c3ccc(N4CCCN(C)CC4)nc3n3c2sc2ccccc23)cn1 | TRUE |

For the next question, use this molecule.
Outcome logged for Cn1ncnc1[C@H]1c2n[nH]c(=O)c3cc(F)cc(c23)N[C@@H]1c1ccc(F)cc1 + Cc1[nH]c2ccc(F)cc2c1-c1nc2c3cccnc3c3ncccc3c2[nH]1 in this assay:
FALSE

----------
test system: 857933-349-R-J2-PDC complex spheroids, viability; experiment: Anticancer human tumor 857933-349-R-J2-PDC cell line growth inhibition [GQUAD]; settings: second compound 3.16 µM; first compound 0.0999 µM; active means viability on the fitted dose curve at most 10% of control; inactive means the rest;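 further: spheroids exposed to compounds for one week before readout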
Answer with one of the outcomes active, inactive

Use the examples below as a reference point.
| compound | target | assigned.class |
| --- | --- | --- |
| CCc1c2c(nc3ccc(O)cc13)-c1cc3c(c(=O)n1C2)COC(=O)[C@]3(O)CC + Cc1cnc(CNC(=O)c2c(=O)c3ccc(N4CCCN(C)CC4)nc3n3c2sc2ccccc23)cn1 | 857933-349-R-J2-PDC complex spheroids, viability | active |
| Cn1ncnc1[C@H]1c2n[nH]c(=O)c3cc(F)cc(c23)N[C@@H]1c1ccc(F)cc1 + CN(C)c1ccc(Nc2c3ccc(NC(=O)CCN4CCCC4)cc3nc3cc(NC(=O)CCN4CCCC4)ccc23)cc1 | 857933-349-R-J2-PDC complex spheroids, viability | inactive |
| CCc1c2c(nc3ccc(O)cc13)-c1cc3c(c(=O)n1C2)COC(=O)[C@]3(O)CC + Cc1[nH]c2ccc(F)cc2c1-c1nc2c3cccnc3c3ncccc3c2[nH]1 | 857933-349-R-J2-PDC complex spheroids, viability | inactive |

Answer briefly: the call reported for CC[C@@]1(O)C(=O)OCc2c1cc1n(c2=O)Cc2cc3c(CN(C)C)c(O)ccc3nc2-1 + Cc1cnc(CNC(=O)c2c(=O)c3ccc(N4CCCN(C)CC4)nc3n3c2sc2ccccc23)cn1 in this assay.
active

----------
Tested on: 857933-349-R-J2-PDC complex spheroids, viability
Assay: Anticancer human tumor 857933-349-R-J2-PDC cell line growth inhibition [GQUAD];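 further: spheroids exposed to compounds for one week before readout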
Conditions: curve of first compound; second compound 0.316 µM
Excerpt: DNA G-quadruplex Stabilizer Agents in Combinations in Complex Spheroids A high-throughput screen of multi-cell type tumor spheroids was designed to identify active combinations of DNA G-quadruplex stabilizer agents and targeted small molecules. […] Compounds. […] If the clinical Cmax for an agent had not been determined, the highest concentration tested was 10 microM. […]
Assignment: determine reported IC50 for the given compounds.

| compound | IC50 |
| --- | --- |
| COc1ncnc(C2CC2)c1-c1ncc2cnn(Cc3ccc(-c4nc(C(F)(F)F)cn4C(C)C)cc3)c2n1 + CN(C)c1ccc(Nc2c3ccc(NC(=O)CCN4CCCC4)cc3nc3cc(NC(=O)CCN4CCCC4)ccc23)cc1 | > 10000 nM |
| Cc1cccc(N(C)C(=O)C2C(O)CCN2c2nc(C)cc(C(F)(F)F)c2C#N)c1 (stereo unspecified) + Cc1cnc(CNC(=O)c2c(=O)c3ccc(N4CCCN(C)CC4)nc3n3c2sc2ccccc23)cn1 | < 31.6 nM |
| COc1cc(C2c3cc4c(cc3C(OC3OC5COC(C)OC5C(O)C3O)C3COC(=O)C23)OCO4)cc(OC)c1O (stereo unspecified) + Cc1[nH]c2ccc(F)cc2c1-c1nc2c3cccnc3c3ncccc3c2[nH]1 | 1030 nM |
| CCCS(=O)(=O)Nc1ccc(F)c(C(=O)c2c[nH]c3ncc(-c4ccc(Cl)cc4)cc23)c1F + Cc1cnc(CNC(=O)c2c(=O)c3ccc(N4CCCN(C)CC4)nc3n3c2sc2ccccc23)cn1 | < 31.6 nM |

Please look at the items below and tell me IC50 for each one, in order.
1. CCCS(=O)(=O)Nc1ccc(F)c(C(=O)c2c[nH]c3ncc(-c4ccc(Cl)cc4)cc23)c1F + Cc1[nH]c2ccc(F)cc2c1-c1nc2c3cccnc3c3ncccc3c2[nH]1
2. O=c1[nH]cc(F)c(=O)[nH]1 + Cc1[nH]c2ccc(F)cc2c1-c1nc2c3cccnc3c3ncccc3c2[nH]1
3. COc1cc(C2c3cc4c(cc3C(OC3OC5COC(C)OC5C(O)C3O)C3COC(=O)C23)OCO4)cc(OC)c1O (stereo unspecified) + Cc1cnc(CNC(=O)c2c(=O)c3ccc(N4CCCN(C)CC4)nc3n3c2sc2ccccc23)cn1
4. Cn1ncnc1[C@H]1c2n[nH]c(=O)c3cc(F)cc(c23)N[C@@H]1c1ccc(F)cc1 + Cc1cnc(CNC(=O)c2c(=O)c3ccc(N4CCCN(C)CC4)nc3n3c2sc2ccccc23)cn1

["5230 nM", "2100 nM", "< 31.6 nM", "< 0.999 nM"]

Record IC50 for all entries; do not skip any.
1. Nc1ccn(C2OC(CO)C(O)C2(F)F)c(=O)n1 (stereo unspecified) + Cc1cnc(CNC(=O)c2c(=O)c3ccc(N4CCCN(C)CC4)nc3n3c2sc2ccccc23)cn1
2. Cc1[nH]c2ccccc2c1CCNCc1ccc(/C=C/C(=O)NO)cc1 + Cc1cnc(CNC(=O)c2c(=O)c3ccc(N4CCCN(C)CC4)nc3n3c2sc2ccccc23)cn1

1. < 31.6 nM
2. < 0.999 nM

# input compound: CC(C)(O)C1CCC(Nc2ccc3ncc(-c4cccc(C(F)(F)F)c4)n3n2)CC1 (stereo unspecified) + Cc1[nH]c2ccc(F)cc2c1-c1nc2c3cccnc3c3ncccc3c2[nH]1 ; wanted: its IC50
673 nM

----------
test system: 857933-349-R-J2-PDC complex spheroids, viability; assay: Anticancer human tumor 857933-349-R-J2-PDC cell line growth inhibition [GQUAD]; details: curve of first compound; second compound 0.316 µM;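 further: spheroids exposed to compounds for one week before readout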
parameter.measured: IC50

Take a look at these entries with their results.
| molecule | recorded.measurement |
| --- | --- |
| CC1COCCN1c1cc(-c2ccnn2C)c2ccnc(-c3ccn[nH]3)c2n1 (stereo unspecified) + CN(C)c1ccc(Nc2c3ccc(NC(=O)CCN4CCCC4)cc3nc3cc(NC(=O)CCN4CCCC4)ccc23)cc1 | > 10 µM |
| C=CC(=O)N1CCN(c2nc(=O)n(-c3c(C)ccnc3C(C)C)c3nc(-c4c(O)cccc4F)c(F)cc23)C(C)C1 (stereo unspecified) + CN(C)c1ccc(Nc2c3ccc(NC(=O)CCN4CCCC4)cc3nc3cc(NC(=O)CCN4CCCC4)ccc23)cc1 | > 10 µM |
| COc1ncnc(C2CC2)c1-c1ncc2cnn(Cc3ccc(-c4nc(C(F)(F)F)cn4C(C)C)cc3)c2n1 + Cc1[nH]c2ccc(F)cc2c1-c1nc2c3cccnc3c3ncccc3c2[nH]1 | > 10 µM |
| CC(C)n1c(=O)n(C)c2cnc3cc(F)c(-c4ccc(OCCCN5CCCCC5)nc4)cc3c21 + Cc1[nH]c2ccc(F)cc2c1-c1nc2c3cccnc3c3ncccc3c2[nH]1 | > 10 µM |
| C=CC(=O)N1CCN(c2nc(=O)n(-c3c(C)ccnc3C(C)C)c3nc(-c4c(O)cccc4F)c(F)cc23)C(C)C1 (stereo unspecified) + Cc1cnc(CNC(=O)c2c(=O)c3ccc(N4CCCN(C)CC4)nc3n3c2sc2ccccc23)cn1 | < 0.0316 µM |

For each of the molecules below, state IC50.
1. O=c1[nH]cc(F)c(=O)[nH]1 + CN(C)c1ccc(Nc2c3ccc(NC(=O)CCN4CCCC4)cc3nc3cc(NC(=O)CCN4CCCC4)ccc23)cc1
2. C=CCn1c(=O)c2cnc(Nc3ccc(N4CCN(C)CC4)cc3)nc2n1-c1cccc(C(C)(C)O)n1 + CN(C)c1ccc(Nc2c3ccc(NC(=O)CCN4CCCC4)cc3nc3cc(NC(=O)CCN4CCCC4)ccc23)cc1

["8.13 µM", "1.51 µM"]

All figures here come from PubChem BioAssay AID2060491.
